For each entry below, report its Functional assay Cross-linked by F(ab′)2 fragment IL-8 value.
- Assayed system: T1, CD134 expressed on the cell surface of HT1080_OX40 cells (human, UniProt P43489 29-277); also: test concentration or dose not given here
- T1 sequence (looked up): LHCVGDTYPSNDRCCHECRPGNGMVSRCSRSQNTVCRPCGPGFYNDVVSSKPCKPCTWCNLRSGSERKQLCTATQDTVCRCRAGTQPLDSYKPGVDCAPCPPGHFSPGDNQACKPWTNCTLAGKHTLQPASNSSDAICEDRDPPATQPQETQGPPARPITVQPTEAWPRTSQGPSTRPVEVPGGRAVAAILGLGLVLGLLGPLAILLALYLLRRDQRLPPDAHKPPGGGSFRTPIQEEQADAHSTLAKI
- Protocol summary: cell-based or functional assay
One number for each entry, in abs. corr..

Example binders with recorded Functional assay Cross-linked by F(ab′)2 fragment IL-8:
Binder	Units of measure	Numeric result
P018.S.11.A.E02 (antibody, V domains shown, V regions on human Ig constant parts; also called AB134_33) VH: QEQLEESGGDLVKPEGSLTLTCTASGFSFNVDYYMCWVRQAPGKGLEWIACIYVGSEGSTYYASWAKGRFTISKTSSTTVTLQMTSLTAADTATYFCARHYAGYAGYNYATDYYFTLWGPGTLVTVSS VL: DIVMTQTPSSVSAGVGGTVTINCQASQSVTNFLSWYQQKPGQPPKLLIYGASTLASGVPSRFKGSGSGTEFTLTISGMKAEDVATYYCQSGYYSATFGAGTKVEIK	abs. corr.	2.04
P018.S.12.A.A05 (antibody, V domains shown, V regions on human Ig constant parts; also called AB134_54) VH: QSLEESGGRLVTPGTPLTLTCTASGFSLSNYYINWVRQAPGKGLEWIGIIDKSGSAYYASWARGRFTISKTSTTVGLKIPSPTTEDTATYFCARGYGGYADHGLGLWGQGTLVTVSS VL: DVVMTQTPASVSEPVGGTVTIKCQASQSIAGWLAWYQQKPGQPPKLLIYQASKLASGVPSRFSGSGSGTEYTLTISDLESDDAATYYCQCTYGSASGSNGFGGGTEVVVK	abs. corr.	1.53

Now, please, on to the next binder.
Data request: Respond only with Functional assay Cross-linked by F(ab′)2 fragment IL-8 recorded for P018.S.11.A.E03 (antibody, V domains shown, V regions on human Ig constant parts; also called AB134_34) VH: QSVEESGGRLVTPGTPLTLTCTVSGFSLSSYAVSWVRQAPWKGLEWIGIISSGGNTYYASWATGRFTISKTSTTVDLKITSPTTEDTATYFCARGIHSYDDYLGYKLWGPGTLVTVSS VL: AIEMTQSPPSLSASVGETVRIRCLASEFLFNAVSWYQQKPEKPPTLLISGASNLESGVPPRFSGSGSGTDYTLTIGGVQAEDVAAYYCLGGYKRADLTFGPGTKVEIK
Data returned: 1.79
